Test system: UM-UC-9 engineered cells
procedure.details: Cell proliferation / short-term viability assay, CellTiter-Glo 144 h
Format: cell-based, human
condition.notes: listed as 101a, read-out: CTGlo 144 h UMUC9.5, G150
assay.metric: IC50

Exercise: Dear colleague, I am looking for the recorded IC50 of the following compound: COc1cc(-c2cc(C(=O)N3CCC(C(=O)NC4CCC(C)CC4)CC3)n[nH]2)c(Cl)cn1 (single isomer, unassigned) [Example 101-A]
Solution: > 10 µM

* * *

tgt: His6-TEV-PPARγ-(234-505) (Homo sapiens)
Construct: The His6-TEV-PPARγ-(234-505) protein for assay was expressed and purified; TEV cleavage site (N); made in house
procedure.details: TR-FRET Assay to Measure Co-R Peptide Recruitment to PPARγ
Assay type: biochemical
condition.notes: Co-R peptide (SMRT-ID2) recruitment; top final concentration 20 μM; read-out: TR-FRET i-Ag; AC50
Collected AC50 values appear next to each entry.
The answer is to be given in nM; state only the numeric part.

These solved cases illustrate the format of a correct answer.
# compound.structure, reading.unit, AC50
data = [
    ("COc1cc(-c2cc(C(=O)N3CCC(C(=O)NCc4ccc5c(ccn5C)c4)CC3)n[nH]2)c(Cl)cn1", "nM", 13.8),
    ("COc1cc(-c2cc(C(=O)N3CCC(C(=O)NCc4ccc5c(c4)CCS5(=O)=O)CC3)n[nH]2)c(Cl)cn1", "nM", 722),
    ("COc1cc(-c2cc(C(=O)N3CC[C@H](C(=O)NCc4[nH]cnc4C(F)(F)F)CC34CC4)[nH]n2)c(F)cn1", "nM", 8.1),
]

Could you now consider this next compound?
Exercise: What value of AC50 has been recorded for this entry: `COc1cc(-c2cc(C(=O)N3CCC(C(=O)NCc4c[nH]c5ccccc45)CC3)n[nH]2)c(Cl)cn1`
Solution: 56.2

* * *

Entries and their measured AC50 follow.
tgt: His6-TEV-PPARγ-(234-505) (Homo sapiens)
Construct: The His6-TEV-PPARγ-(234-505) protein for assay was expressed and purified; TEV cleavage site (N); made in house
procedure.details: TR-FRET Assay to Measure Co-R Peptide Recruitment to PPARγ
Format: biochemical
condition.notes: Co-R peptide (SMRT-ID2) recruitment; top final concentration 20 μM; read-out: TR-FRET i-Ag; AC50
Could you give me the number in nM? Just the number is fine.

# compound, AC50 (nM)
measured = [
    ("COc1cc(-c2cc(C(=O)N3CC[C@H](C(=O)NC4CCC5(CCCN5CC(C)(F)F)CC4)CC34CC4)n[nH]2)c(F)cn1 (stereo partly drawn)", 256),
]

Exercise: Looking for the measured AC50 of CO[C@]1(C(F)(F)F)CC[C@@H](NC(=O)[C@H]2CCN(C(=O)c3cc(-c4cc(C)ncn4)[nH]n3)C3(CC3)C2)CC1 (single isomer, unassigned) , can you help?
Solution: 2.9

Exercise: Reported AC50, compound COc1cc(-c2cc(C(=O)N3CC[C@H](C(=O)N[C@H]4CC[C@@](O)(C(F)(F)F)CC4)CC34CC4)n[nH]2)c(Cl)cn1 (single isomer, unassigned) : ____
Solution: 2.2

* * *

tgt: His6-TEV-PPARγ-(234-505) (Homo sapiens)
Construct: The His6-TEV-PPARγ-(234-505) protein for assay was expressed and purified; TEV cleavage site (N); made in house
procedure.details: TR-FRET Assay to Measure Co-R Peptide Recruitment to PPARγ
Type: biochemical
condition.notes: Co-R peptide (SMRT-ID2) recruitment; top final concentration 20 μM; read-out: TR-FRET i-Ag; AC50
assay.metric: log10 of AC50 (log10 of the value in nM)
For clarity, the numbers are log10 values of AC50 expressed in nM.

Guide cases for log10 of AC50, answers given:
# compound, log10 of AC50
data = [
    ("COc1cc(-c2cc(C(=O)N3CCC(C(=O)N[C@@H](C)c4cccc(F)c4)CC3)n[nH]2)c(Cl)cn1", 2.41),
    ("COc1cc(-c2cc(C(=O)N3CC[C@H](C(=O)NCc4ncc(N5CC6CC5CN6)cn4)CC34CC4)n[nH]2)c(F)cn1 (single isomer, unassigned) [Example 467-B]", 2.81),
]

Exercise: Any idea what log10 of AC50 was measured for COc1cc(-c2cc(C(=O)N3CCC(C(=O)NC4C(=O)N(C)Cc5ccccc54)CC3)n[nH]2)c(Cl)cn1 (racemic) ?
Solution: 2.85

Exercise: Quick one: log10 of AC50 for COc1cc(-c2cc(C(=O)N3CC[C@H](C(=O)N[C@H]4CC[C@@](O)(C(F)(F)F)CC4)CC34CCC4)n[nH]2)c(F)cn1 (racemic) ?
Solution: 0.72

Exercise: What does the data say about its log10 of AC50? Entry: COc1cc(-c2cc(C(=O)N3CCC(C(=O)NCc4cccc(Cl)c4)C(C)C3)n[nH]2)c(Cl)cn1 (mixture of isomers)
Solution: 2.83

Exercise: If you can, please state the reported log10 of AC50 value of COc1cc(-c2cc(C(=O)N3CC[C@H](C(=O)NC4CCC(N5CCOCC5)CC4)CC34CC4)n[nH]2)c(F)cn1 (single isomer, unassigned) .
Solution: 1.83

* * *

tgt: His6-TEV-PPARγ-(234-505) (Homo sapiens, UniProt P37231)
Construct: The His6-TEV-PPARγ-(234-505) protein for assay was expressed and purified; TEV cleavage site (N); made in house
Sequence (P37231 234-505): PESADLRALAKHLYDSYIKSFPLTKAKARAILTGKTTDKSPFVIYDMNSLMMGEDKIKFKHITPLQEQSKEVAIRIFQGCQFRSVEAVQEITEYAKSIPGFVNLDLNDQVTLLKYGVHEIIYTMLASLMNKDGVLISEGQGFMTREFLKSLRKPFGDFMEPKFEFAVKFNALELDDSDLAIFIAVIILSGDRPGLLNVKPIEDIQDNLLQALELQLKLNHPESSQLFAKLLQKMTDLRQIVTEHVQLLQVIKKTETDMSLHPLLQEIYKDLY
procedure.details: TR-FRET Assay to Measure Co-R Peptide Recruitment to PPARγ
Format: biochemical
condition.notes: Co-R peptide (SMRT-ID2) recruitment; top final concentration 20 μM; read-out: TR-FRET i-Ag; AC50
Protocol: TR-FRET Assay to Measure Co—R Peptide Recruitment to PPARγ The 2× detection solution contained anti-6×His-Terbium antibody (CisBio) and FITC labeled Co—R peptide (SMRT-ID2 from New England Peptide) at final concentrations of 5 and 200 nM respectively. In these assay plates, the positive control in column 24 contained 500 nM (final) T0070907 and the negative control in column 23 contained an identical volume of DMSO. […] Experiments were performed in triplicate and analyzed in GraphPad Prism 7.
assay.metric: AC50 (nM)
Field format: number, assumed nM, no unit text.

Past entries and their recorded results:
# compound, AC50 [nM]
records = [
    ("CO[C@]1(C(F)(F)F)CC[C@H](NC(=O)[C@H]2CCN(C(=O)c3cc(-c4cc(C)ncn4)[nH]n3)C3(CC3)C2)CC1 (single isomer, unassigned) [Example 309-B]", 49.5),
    ("CCO[C@]1(C(F)(F)F)CC[C@@H](NC(=O)[C@@H]2CCN(C(=O)c3cc(-c4cc(C)ncn4)[nH]n3)C3(CC3)C2)CC1 (single isomer, unassigned) [Example 308-E]", 635),
    ("O=C(NCc1ncc(F)cc1Cl)C1CCN(C(=O)c2cc(-c3cc(C4CC4)ncc3F)[nH]n2)C2(CC2)C1 (racemic) [Example 480]", 17.6),
    ("Cc1cc(-c2c[nH]c(C(=O)N3CCC(C(=O)N[C@H]4CC[C@@](O)(C(F)(F)F)CC4)CC34CC4)n2)c(O)cn1 (stereo partly drawn) [Example 310]", 14),
    ("COc1cc(-c2cc(C(=O)N3CC[C@H](C(=O)NCC4CCNCC4(F)F)CC34CC4)n[nH]2)c(F)cn1 (single isomer, unassigned) [Example 511-A]", 17.2),
]

Read the next record carefully.
Exercise: State the recorded AC50 for this entry: CCOC1(C(F)(F)F)CCC(NC(=O)[C@@H]2CCN(C(=O)c3cc(-c4cc(C)ncn4)[nH]n3)C3(CC3)C2)CC1 (mixture of isomers) [Example 308-B]
Solution: 548

* * *

tgt: His6-TEV-PPARγ-(234-505) (Homo sapiens)
Construct: The His6-TEV-PPARγ-(234-505) protein for assay was expressed and purified; TEV cleavage site (N); made in house
procedure.details: TR-FRET Assay to Measure Co-R Peptide Recruitment to PPARγ
Assay type: biochemical
condition.notes: Co-R peptide (SMRT-ID2) recruitment; top final concentration 20 μM; read-out: TR-FRET i-Ag; AC50
assay.metric: AC50 (nM)
Answer in nM, number only, no unit symbol.

# compound, tgt, assay.metric, data.value
records = [
    ("COc1cc(-c2cc(C(=O)N3CCC(C(=O)NCc4ccc5n[nH]nc5c4)CC3)n[nH]2)c(Cl)cn1 [Example 197]", "His6-TEV-PPARγ-(234-505) (Homo sapiens)", "AC50", 197),
    ("COc1cc(-c2cc(C(=O)N3CC[C@H](C(=O)NCc4nccnc4C)CC34CC4)n[nH]2)c(F)cn1 [Example 397]", "His6-TEV-PPARγ-(234-505) (Homo sapiens)", "AC50", 23.4),
    ("COc1cc(-c2cc(C(=O)N3CC[C@H](C(=O)NC4CCC(O)(C(C)(F)F)CC4)CC34CC4)n[nH]2)c(F)cn1 (single isomer, unassigned) [Example 375-A]", "His6-TEV-PPARγ-(234-505) (Homo sapiens)", "AC50", 3.4),
]

Exercise: Find the recorded AC50 belonging to COc1cc(-c2cc(C(=O)N3CC[C@H](C(=O)NCc4ncc(N5CC6CC5CN6)cn4)CC34CC4)n[nH]2)c(F)cn1 (single isomer, unassigned) [Example 467-A] and report it.
Solution: 327

Exercise: What AC50 value was documented for this compound, COc1cc(-c2cc(C(=O)N3CC[C@H](C(=O)NCc4ncc(F)cn4)CC34CC4)[nH]n2)c(F)cn1 [Example 512] ?
Solution: 11.2

Exercise: Which AC50 value is on record for COc1cc(-c2cc(C(=O)N3CC[C@@H](C(=O)NCc4cccc(Cl)c4)CC34CCC4)n[nH]2)c(Cl)cn1 (single isomer, unassigned) [Example 256-B] ?
Solution: 15900
